Species on record: Rattus norvegicus
measurement-protocol: Open TG-GATES - Regimen: Daily Repeat
Assay type: toxicity, organism-based, Sprague-Dawley
Set-up: regimen Daily Repeat, gender Male, age 6 weeks
applied-conditions: in vivo, po, 0 mg/kg, […], tissue Blood, route gavage, dose level Control, time 28 day
quantity-kind: Bas (%)
Response body: numeric value in %, unit text excluded.

Identify the reported Bas for the following entry. ClC(Cl)(Cl)Cl [CARBON TETRACHLORIDE]
0

Identify the reported Bas for the following entry. `O=NN(CCCl)C(=O)NC1CCCCC1`
0

Identify the reported Bas for the following entry. `CC[C@H]1[C@@H]2C[C@H]3[C@@H]4N(C)c5ccccc5[C@]45C[C@@H]([C@@H]2[C@H]5O)N3[C@@H]1O`
0

Identify the reported Bas for the following entry. CC(C)N(CCC(C(N)=O)(c1ccccc1)c1ccccn1)C(C)C (stereo unspecified) [DISOPYRAMIDE]
0

Identify the reported Bas for the following entry. `CN(C)C(=N)N=C(N)N`
0.2

Identify the reported Bas for the following entry. CN(C)CCC=C1c2ccccc2COc2ccccc21 [DOXEPIN]
0

Identify the reported Bas for the following entry. OCCOCCN1CCN(C(c2ccccc2)c2ccc(Cl)cc2)CC1 (stereo unspecified) [HYDROXYZINE]
0.2

Identify the reported Bas for the following entry. CC1=C(CC(=O)O)c2cc(F)ccc2/C1=C\c1ccc([S+](C)[O-])cc1 (stereo unspecified)
0.2

Identify the reported Bas for the following entry. `CCCCc1oc2ccccc2c1C(=O)c1cc(I)c(OCCN(CC)CC)c(I)c1`
0

Identify the reported Bas for the following entry. `CCc1oc2ccccc2c1C(=O)c1cc(Br)c(O)c(Br)c1`
0

Identify the reported Bas for the following entry. `CCC1(c2ccccc2)C(=O)NC(=O)NC1=O`
0

====

Organism: Rattus norvegicus
measurement-protocol: Open TG-GATES - Regimen: Single
Type: toxicity, organism-based, Sprague-Dawley
Design: regimen Single, gender Male, age 6 weeks
applied-conditions: in vivo, po, 0 mg/kg, 3 h, tissue Plasma, route gavage, dose level Control
What TG was measured for each of the following?
Response body: numeric value in mg/dL, unit text excluded.

Identify the reported TG for the following entry. CCC1(c2ccccc2)C(=O)NC(=O)NC1=O [PHENOBARBITAL]
55

Identify the reported TG for the following entry. O=NN(CCCl)C(=O)NC1CCCCC1 [LOMUSTINE]
50.2

Identify the reported TG for the following entry. CC(C)N(CCC(C(N)=O)(c1ccccc1)c1ccccn1)C(C)C (stereo not given) [DISOPYRAMIDE]
45.4

Identify the reported TG for the following entry. CC1=C(CC(=O)O)c2cc(F)ccc2/C1=C\c1ccc([S+](C)[O-])cc1 (stereo not given)
65.4

Identify the reported TG for the following entry. OCCOCCN1CCN(C(c2ccccc2)c2ccc(Cl)cc2)CC1 (stereo not given) [HYDROXYZINE]
68.8

Identify the reported TG for the following entry. CN(C)C(=N)N=C(N)N [METFORMIN]
42.2

Identify the reported TG for the following entry. CC[C@H]1[C@@H]2C[C@H]3[C@@H]4N(C)c5ccccc5[C@]45C[C@@H]([C@@H]2[C@H]5O)N3[C@@H]1O [AJMALINE]
69.4

Identify the reported TG for the following entry. CN(C)CCC=C1c2ccccc2COc2ccccc21 [DOXEPIN]
58.2

Identify the reported TG for the following entry. CCc1oc2ccccc2c1C(=O)c1cc(Br)c(O)c(Br)c1 [BENZBROMARONE]
84.2

Identify the reported TG for the following entry. ClC(Cl)(Cl)Cl [CARBON TETRACHLORIDE]
159.6
